Experiment: Selectivity ratio of IC50 for human HEK293 cells to IC50 for human MCF7 cells
Type: ADME, cell-based
Setup Conditions: HEK293 cells versus MCF7 cells, read-out: Ratio IC50

| Molecule | selectivity ratio |
| --- | --- |
| COc1cc2c(c(OC)c1OC)-c1ccc(OC)c(=O)cc1[C@@H](NC(=O)CCCCCCCCCCCCCCC(=O)OCCCCC[C@@H]1CC=CC(=O)O1)CC2 | 0.7 |
| COc1cc2c(c(OC)c1OC)-c1ccc(OC)c(=O)cc1[C@@H](NC(=O)CCCCCCCCCCC(=O)OCCCCC[C@@H]1CC=CC(=O)O1)CC2 | 4.2 |
| COc1cc2c(c(OC)c1OC)-c1ccc(OC)c(=O)cc1[C@@H](NC(=O)CCCCCCC(=O)OCCCCC[C@@H]1CC=CC(=O)O1)CC2 | > 100 |
| C/C=C/C[C@H](C)[C@@H](OC)[C@@H](C)[C@H](O)C[C@H]1OC(=O)C=C[C@H]1CC [PIRONETIN] | 2.8 |

###

Experiment: Selectivity ratio of IC50 for human HEK293 cells to IC50 for human MCF7 cells
Assay type: ADME, cell-based
Setup Conditions: HEK293 cells versus MCF7 cells, read-out: Ratio IC50
Readout: selectivity ratio

| Structure Notation | Readout | Reading Qualifier | Readout Value |
| --- | --- | --- | --- |
| COc1cc2c(c(OC)c1OC)-c1ccc(OC)c(=O)cc1[C@@H](NC(=O)CCCCCCC(=O)OCCCCC[C@H]1CC=CC(=O)O1)CC2 | selectivity ratio | < | 0.1 |
| COc1cc2c(c(OC)c1OC)-c1ccc(OC)c(=O)cc1[C@@H](NC(=O)CCCCCCCCCCC(=O)OCCCCC[C@H]1CC=CC(=O)O1)CC2 | selectivity ratio | = | 80 |
| COc1cc2c(c(OC)c1OC)-c1ccc(OC)c(=O)cc1[C@@H](NC(=O)CCCC(=O)OCCCCC[C@H]1CC=CC(=O)O1)CC2 | selectivity ratio | < | 0.1 |
| COc1cc2c(c(OC)c1OC)-c1ccc(OC)c(=O)cc1[C@@H](NC(=O)CCCCCCCCCCCCCCC(=O)OCCCCC[C@H]1CC=CC(=O)O1)CC2 | selectivity ratio | = | 1 |
| COc1cc2c(c(OC)c1OC)-c1ccc(OC)c(=O)cc1[C@@H](NC(=O)CCCC(=O)OCCCCC[C@@H]1CC=CC(=O)O1)CC2 | selectivity ratio | = | 8.7 |
